Sourced from patent US9708336B2

assaySystem: UniProt:P52699
Sequence (P52699 whole entry, looked up): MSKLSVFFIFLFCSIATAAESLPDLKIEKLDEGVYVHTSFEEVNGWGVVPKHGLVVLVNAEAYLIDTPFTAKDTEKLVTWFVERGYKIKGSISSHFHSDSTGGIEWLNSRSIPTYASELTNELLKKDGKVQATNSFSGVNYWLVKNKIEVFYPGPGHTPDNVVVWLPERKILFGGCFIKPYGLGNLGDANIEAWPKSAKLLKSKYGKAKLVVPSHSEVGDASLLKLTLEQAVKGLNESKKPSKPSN
assayComment: biochemical
Assay type: biochemical
conditionsUsed: fluorescence assay with CCF2-FA substrate; read-out: IMP-1 IC50
pIC50: −log10 of the molar value.
Binary classification by pIC50, with 7 as an inclusive lower bound for 1; all other cases are 0.

# compound, labelValue
records = [
    ("NS(=O)(=O)c1nccc(-c2ccncc2)c1-c1nnn[nH]1 [Example 194]", 0),
    ("NS(=O)(=O)c1cccc(C2CCCNC2)c1-c1nn[nH]n1 (centres unmarked) [Example 175]", 0),
    ("CN(c1ncc(-c2cccc(S(N)(=O)=O)c2-c2nn[nH]n2)cn1)S(C)(=O)=O [Example 55]", 1),
    ("NCC1CCC(N2CC(c3ccc(-c4ccc(C(F)(F)F)c(S(N)(=O)=O)c4-c4nnn[nH]4)cc3)C2)CC1 (centres unmarked) [Example 813]", 1),
    ("C[C@H]1NC(=O)O[C@H]1c1ccc(-c2cccc(S(N)(=O)=O)c2-c2nnn[nH]2)cc1 [Example 23]", 1),
]
